tested on: MCF10A; assay: 5+ nucleoli phenotype percent effect (relative to siNT 0% and siKIF11 100%); higher = more cells with five or more nucleoli; conditions: 20 nM; 72 h
MEASUREMENT TYPE: 5+ nucleoli phenotype percent effect (%)
Answers are plain numbers, in %.

Please review the following examples before continuing.
# CONSTRUCT SEQUENCE, MEASUREMENT TYPE, VALUE UNIT, OBSERVED VALUE
rows = [
    ("UGGGCUAAGGGAGAUGAUUGGGUA [hsa-miR-664b-5p]", "5+ nucleoli phenotype percent effect", "%", 2.04),
    ("UGGUGGUUUACAAAGUAAUUCA [hsa-miR-876-3p]", "5+ nucleoli phenotype percent effect", "%", -33.4),
    ("GCCCUGACCUGUCCUGUUCUG [hsa-miR-4732-3p]", "5+ nucleoli phenotype percent effect", "%", 21.5),
    ("AAAAUUUCUUUCACUACUUAG [hsa-miR-3606-3p]", "5+ nucleoli phenotype percent effect", "%", 41.5),
    ("CUGGGAGGUCAAGGCUGCAGU [hsa-miR-1273h-5p]", "5+ nucleoli phenotype percent effect", "%", 11.3),
    ("UAGGCAGUGUCAUUAGCUGAUUG [hsa-miR-34b-5p]", "5+ nucleoli phenotype percent effect", "%", -23.8),
    ("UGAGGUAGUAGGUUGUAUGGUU [hsa-let-7c]", "5+ nucleoli phenotype percent effect", "%", 56.3),
    ("AUUGGACUGCUGAUGGCCCGU [hsa-miR-4529-3p]", "5+ nucleoli phenotype percent effect", "%", -12.1),
]

# batch size: 3; output 5+ nucleoli phenotype percent effect per entry
1. UUUAACAUGGGGGUACCUGCUG [hsa-miR-302c-5p]
2. UUGGGGAUUGGGUCAGGCCAGU [hsa-miR-6857-5p]
3. GUGGUUAUCCCUGCUGUGUUCG [hsa-miR-487a-5p]

[22.3, -18, 24.8]
